Listed below: Pharmacophore torsion angle a(O1, H4, O2, CA1) values for each entry.
Molecular target: MASP-2 CCP2-SP (Homo sapiens (Human), UniProt O00187)
Sequence (O00187 445-686): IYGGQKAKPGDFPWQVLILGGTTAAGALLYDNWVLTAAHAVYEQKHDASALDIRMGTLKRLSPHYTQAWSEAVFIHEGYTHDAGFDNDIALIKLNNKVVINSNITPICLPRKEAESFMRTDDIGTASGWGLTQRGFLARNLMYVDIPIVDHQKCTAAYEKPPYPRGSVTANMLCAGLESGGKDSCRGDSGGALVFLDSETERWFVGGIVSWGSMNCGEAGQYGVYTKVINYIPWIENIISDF
Sequence (O00187 364-432 partner): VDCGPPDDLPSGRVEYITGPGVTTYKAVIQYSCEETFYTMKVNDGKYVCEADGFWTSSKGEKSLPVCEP
Assay: MASP-2 co-crystallization, X-ray crystallography and structure analysis (H-bonds, van der Waals contacts)
Settings: Table A7-1; between pharmacophore elements of the bound compound
Structures can show the parent of a compound that is named as a salt.
// no unit, no text: just the number

Here is how some compounds turned out for Pharmacophore torsion angle a(O1, H4, O2, CA1).
Cc1nc(N)ccc1CNC(=O)[C@H](C)NC(=O)[C@H]1C[C@H](Cc2ccc3ccccc3c2)CN1
−85.13
Cc1cccc([C@H]2CN[C@@H](C(=O)N[C@@H](C)C(=O)NCc3ccc(N)nc3C)C2)c1 [compound 1257, Dihydrochloride]
−83.51
Cc1cc(Cl)cc(CNC(=O)[C@H](C)NC(=O)[C@H]2C[C@H](Cc3ccccc3)CN2)c1O
−88.47
C[C@H](NC(=O)[C@H]1C[C@@H](c2ccccc2)CCN1)C(=O)NCc1cc(Cl)ccc1O.Cl [1078_10]
−84.11
C[C@H](NC(=O)[C@H]1C[C@@H](c2ccccc2)CCN1)C(=O)NCc1cc(Cl)ccc1O.Cl [1078_11]
−55.96

Look up Pharmacophore torsion angle a(O1, H4, O2, CA1) with MASP-2 CCP2-SP (Homo sapiens (Human), UniProt O00187) for this compound: Cc1nc(N)ccc1CNC(=O)[C@H](C)NC(=O)[C@H]1C[C@H](Cc2ccccc2Br)CN1.O=C(O)C(F)(F)F.O=C(O)C(F)(F)F [1372_A]
−83.68

Param readout= Pharmacophore torsion angle a(O1, H4, O2, CA1); system= MASP-2 CCP2-SP (Homo sapiens (Human), UniProt O00187); entry= Cc1nc(N)ccc1CNC(=O)[C@H](C)NC(=O)[C@H]1C[C@H](Cc2cccc(Cl)c2)CN1.Cl.Cl [1328_3] ; returns value.
−87.28

Source: patent US12195427B2
